# System: Ctenocephalides felis
# ASSAY: Ctenocephalides felis oral test (CTECFE)
# Format: in vivo
# SETUP CONDITIONS: 100 ppm in citrated cattle blood, after two days
QUANTITY MEASURED: activity (kill in %)
Value expressed in %; do not type the unit.

Consider the reported activity (kill in %) for these compounds:
COMPOUND	MEAS VALUE
Cc1ccc(N=C2C(=CSc3ccc(F)cc3)CCc3occc32)cc1	80
Cc1ccc(N=C2C(=CSc3ccccc3Cl)CCc3ccccc32)cc1	100
Cc1ccc(N=C2C(=CSc3ccc(F)cc3)C(C)c3ccccc32)cc1 (stereo not drawn)	100
Cc1ccc(N=C2C(=CSc3ccc(C)cc3)CCc3ccccc32)cc1	100
Cc1ccc(N=C2C(=CSc3ccc(F)cc3)CCc3cc(F)ccc32)cc1	100
Cc1ccc(N=C2C(=CSc3ccccc3F)CCc3ccccc32)cc1	90
Cc1ccc(N=C2C(=CSc3ccccc3)C(C)c3ccccc32)cc1 (mixture of isomers)	100
Cc1ccc(N=C2C(=CSc3ccc(F)cc3)CCc3ccccc32)cc1	100

# lookup: activity (kill in %) of "Cc1ccc(N=C2C(=CSc3ccc(F)c(F)c3)CCc3ccccc32)cc1"
80

Each recorded value in this set is attributed to patent US9055743B2.
